Test system: P. falciparum NF54-pfs16-GFP early (I-III) stage gametocytes
Experiment: relative % inhibition of viable gametocyte number; higher = more gametocytocidal
Conditions: 5 µM; stage: early (I-III) gametocyte; incubation 72 h
Tick True if relative % inhibition is 20% or greater. Tick False if relative % inhibition is less than 20%.

> print(dat)
                                   molecule  classlabel
1  COc1ccc(N2CCN(C(CNC(=O)C3CCCCC3)c3ccc4c(c3)OCO4)CC2)cc1 (stereo not drawn)       False
2  CCOc1ccc(-c2nc(NC(=O)c3cccc(S(C)(=O)=O)c3)sc2C)cc1       False
3      CN(C)c1ccc(N=Cc2ccc(N3CCOCC3)cc2)cc1        True
4  O=C(CCc1ccccc1)c1ccccc1OCC(O)CN1CCCCC1 (stereo not drawn)        True
5  O=C(NNc1cc(N2CCCC2)nc(N2CCCC2)n1)c1ccccc1       False
6   Cc1cc(Nc2ccc(Cl)cc2)n2nc(C(F)(F)F)nc2n1       False
7  CC1CC(C)CN(C(=O)c2ccc(Cl)cc2Cl)C1 (stereo not drawn)       False
8                  CCc1c(C)c(=N)c2ccccc2n1C       False
